System: SN12C renal
METHOD SUMMARY: NCI tumour cell line growth inhibition, 48 h
QUANTITY KIND: TGI

COMPOUND | MEASURED VALUE
COc1cccc(CCn2c(N)c(C#N)c3ccc([N+](=O)[O-])cc3c2=O)c1 | > 100 µM
COc1cc2c(cc1O)C(=O)O[C@@H]1CC=C3CCN(C)[C@H]3[C@H]21 | > 25 µM
CCOC(=O)c1ccc(NC(=O)c2cccc(NC3=C(Cl)C(=O)N(Cc4ccccc4)C3=O)c2)cc1 | > 100 µM

Reported TGI for SN12C renal, given N#CC(C#N)=C1CCC2C(=C(C#N)C#N)CCC12 (stereo unspecified) ?
> 100 µM

Reported TGI for SN12C renal, given CCN(CC)CCCNc1cc(OC)c(OC)c2cccnc12 ?
7.7 µM

Reported TGI for SN12C renal, given COC(=O)C(C#N)C1NC(=O)c2ccccc21 (stereo unspecified) ?
> 100 µM
